Field: OD490. Provide a value for each of the binders that follow.
test-system: T1, M3
T1 construct: also called PD1 mutant M3
assay-name: scFv-phage ELISA
Answers are plain numbers.

PD1-44B5 (antibody, V domains shown, scFv-phage in the screening ELISA; later whole IgG) VH: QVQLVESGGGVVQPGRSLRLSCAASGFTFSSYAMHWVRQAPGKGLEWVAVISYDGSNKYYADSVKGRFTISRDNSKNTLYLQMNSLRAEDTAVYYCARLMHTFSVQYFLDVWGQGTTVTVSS VL: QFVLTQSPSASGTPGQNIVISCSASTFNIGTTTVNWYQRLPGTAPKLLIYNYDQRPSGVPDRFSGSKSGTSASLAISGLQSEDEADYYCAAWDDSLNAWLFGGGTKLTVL :: 3.7
PD1-49A2 (antibody, V domains shown, scFv-phage in the screening ELISA; whole IgG in the other assays; also called Parent 49A2) VH: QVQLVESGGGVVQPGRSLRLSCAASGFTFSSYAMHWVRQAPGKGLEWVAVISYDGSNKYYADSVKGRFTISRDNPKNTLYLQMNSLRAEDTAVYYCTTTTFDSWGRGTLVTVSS VL: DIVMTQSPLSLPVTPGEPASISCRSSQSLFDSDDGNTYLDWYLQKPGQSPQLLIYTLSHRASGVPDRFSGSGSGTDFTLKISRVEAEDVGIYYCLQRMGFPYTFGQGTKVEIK :: 3.4

Name the recorded OD490 for PD1-31F3 (antibody, V domains shown, scFv-phage in the screening ELISA; later whole IgG) VH: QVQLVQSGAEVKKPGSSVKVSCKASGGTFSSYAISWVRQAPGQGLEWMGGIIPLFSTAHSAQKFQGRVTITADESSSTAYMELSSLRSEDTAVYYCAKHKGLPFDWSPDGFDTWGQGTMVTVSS VL: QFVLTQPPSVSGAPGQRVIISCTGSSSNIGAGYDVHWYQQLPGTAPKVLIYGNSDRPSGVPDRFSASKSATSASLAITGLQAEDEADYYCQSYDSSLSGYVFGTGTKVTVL . 1.9

Reference source for all entries: patent US20190248900A1
